Test: Plasma and brain concentrations after MES testing (UHPLC-ESI-MS/MS);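 note: brain and plasma were sampled from mice right after the efficacy test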
Details: CF-1, mouse, in vivo, po, 8 mg/kg, Concentration Brain, Compound A 8 mg/kg PO, 0.5 hr

>  <COMPOUND>
Cc1cc(N2CCc3cc(F)ccc3C2)cc(C)c1NC(=O)CC(C)(C)C [Compound A]

>  <UNIT>
ng/g

>  <concentration at 0.5 h>
402

$$$$

###

Test: Terminal plasma and brain concentrations in AC-MES studies (UHPLC-MS/MS)
Assay type: in vivo, mouse
Details: male, CF-1, mouse, in vivo, po, 10 mg/kg, Study 2A, Compound A 10 mg/kg PO, 0.5 h; read-out: Mean Brain

>  <STRUCTURE NOTATION>
Cc1cc(N2CCc3cc(F)ccc3C2)cc(C)c1NC(=O)CC(C)(C)C

>  <concentration at 0.5 h (nM)>
500

$$$$

The reported measurements were obtained from patent US20220288057A1.
